This collection of values is drawn from ChEMBL document CHEMBL1154878.

TARGET: Cannabinoid receptor 1 (Homo sapiens, UniProt P21554)
Sequence (P21554 whole entry): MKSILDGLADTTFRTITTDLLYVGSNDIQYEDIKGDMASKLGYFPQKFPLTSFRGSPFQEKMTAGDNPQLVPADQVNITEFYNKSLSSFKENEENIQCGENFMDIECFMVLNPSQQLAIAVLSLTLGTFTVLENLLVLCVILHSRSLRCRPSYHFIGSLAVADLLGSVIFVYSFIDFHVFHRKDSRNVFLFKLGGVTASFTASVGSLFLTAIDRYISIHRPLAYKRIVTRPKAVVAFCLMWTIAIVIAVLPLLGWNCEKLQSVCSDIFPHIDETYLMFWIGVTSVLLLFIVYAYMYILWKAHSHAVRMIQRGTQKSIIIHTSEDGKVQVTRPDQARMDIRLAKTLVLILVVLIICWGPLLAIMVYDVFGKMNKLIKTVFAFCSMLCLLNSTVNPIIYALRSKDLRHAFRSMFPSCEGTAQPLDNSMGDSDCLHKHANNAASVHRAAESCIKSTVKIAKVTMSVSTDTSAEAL
ASSAY_TEXT: Inverse agonist activity at human cannabinoid CB1 receptor expressed in CHO cells assessed as inhibition of forskolin-stimulated cAMP accumulation after 60 mins
RESULT_TYPE: EC50 (nM)
Field format: number, assumed nM, no unit text.

**Query** Please state recorded EC50 (tested on Cannabinoid receptor 1 (Homo sapiens, UniProt P21554)) of Cc1ccc(C(c2ccc(Cl)cc2Cl)N2CCN(C(=O)NC3CCCCC3)CC2)cc1 (stereo unspecified)
**Result** 0.87

* * *

The following compounds have recorded IC50 on Cannabinoid receptor 1 (Homo sapiens).
Field format: number, assumed nM, no unit text.

**Query** Please state recorded IC50 (tested on Cannabinoid receptor 1 (Homo sapiens)) of O=C(NC1CCCCC1)N1CCN(C(c2ccccc2)c2ccc(Cl)cc2Cl)CC1 (stereo not given)
**Result** 9.2

**Query** Would you kindly repeat that for O=C(NC1CCCCC1)N1CCN(C(c2ccc(Cl)cc2)c2ccc(Cl)cc2Cl)CC1 (stereo not given) ?
**Result** 19

**Query** Would you kindly repeat that for O=C(NN1CCCCC1)N1CCN(C(c2ccccc2)c2ccc(Cl)cc2Cl)CC1 (stereo not given) ?
**Result** 4.7

**Query** Would you kindly repeat that for COc1ccc(C(c2ccc(Cl)cc2Cl)N2CCN(C(=O)NC3CCCCC3)CC2)cc1 (stereo not given) ?
**Result** 82

**Query** Would you kindly repeat that for O=C(NC1CCCCC1)N1CCN(C(c2ccc(C(F)(F)F)cc2)c2ccc(Cl)cc2Cl)CC1 (stereo not given) ?
**Result** 57

**Query** Would you kindly repeat that for O=C(NC1CCCCC1)N1CCN(C(c2cccc(Cl)c2)c2ccc(Cl)cc2Cl)CC1 (stereo not given) ?
**Result** 161

**Query** Would you kindly repeat that for Cc1ccc(C(c2ccc(Cl)cc2Cl)N2CCN(C(=O)NC3CCCCC3)CC2)cc1 (stereo not given) ?
**Result** 2.7

**Query** Would you kindly repeat that for O=C(NC1CCCCC1)N1CCN(C(c2ccc(Oc3ccccc3)cc2)c2ccc(Cl)cc2Cl)CC1 (stereo not given) ?
**Result** 34

**Query** Would you kindly repeat that for O=C(C1CCCC1)N1CCN(C(c2ccccc2)c2ccc(Cl)cc2Cl)CC1 (stereo not given) ?
**Result** 403

**Query** Would you kindly repeat that for O=C(C1CCCCC1)N1CCN(C(c2ccccc2)c2ccc(Cl)cc2Cl)CC1 (stereo not given) ?
**Result** 9.3

**Query** Would you kindly repeat that for O=C(NC1CCCCC1)N1CCN(C(c2ccccc2)c2ccc(F)cc2Cl)CC1 (stereo not given) ?
**Result** 68

**Query** Would you kindly repeat that for O=C(NC1CCCCC1)N1CCN(C(c2ccccc2)c2ccc(Cl)c(Cl)c2)CC1 (stereo not given) ?
**Result** 462

**Query** Would you kindly repeat that for Cc1ccc(C(c2ccc(Cl)cc2Cl)N2CCN(C(=O)NN3CCCCC3)CC2)cc1 (stereo not given) ?
**Result** 15

**Query** Would you kindly repeat that for O=C(NC1CCCCC1)N1CCN(C(c2ccccc2)c2c(Cl)cccc2Cl)CC1 (stereo not given) ?
**Result** 55

**Query** Would you kindly repeat that for S=C(NC1CCCCC1)N1CCN(C(c2ccccc2)c2ccc(Cl)cc2Cl)CC1 (stereo not given) ?
**Result** 18

**Query** Would you kindly repeat that for O=C(NC1CCCCC1)N1CCN(C(c2ccccc2)c2ccc(Cl)cc2F)CC1 (stereo not given) ?
**Result** 124

**Query** Would you kindly repeat that for O=C(NC1CCCCC1)N1CCN(C(c2ccc(F)cc2)c2ccc(Cl)cc2Cl)CC1 (stereo not given) ?
**Result** 8.1

* * *

TARGET: Cannabinoid receptor 1 (Homo sapiens, UniProt P21554)
Record form. Attribute: IC50. Fill in for each entry.
Field format: number, assumed nM, no unit text.

**Query** Which IC50 is reported for this molecule? O=C(NC1CCCCC1)N1CCN(C(c2ccccc2)c2ccc(Br)cc2F)CC1 (stereo not drawn)
**Result** 87

**Query** Would you kindly repeat that for O=C(NC1CCCCC1)N1CCN(C(c2ccccc2)c2cc(Cl)ccc2Cl)CC1 (stereo not drawn) ?
**Result** 43

**Query** Would you kindly repeat that for O=C(N1CCN(C(c2ccccc2)c2ccc(Cl)cc2Cl)CC1)C12CC3CC(CC(C3)C1)C2 (stereo not drawn) ?
**Result** 288

* * *

Record form. Attribute: Ki. Fill in for each entry.
TARGET: Cannabinoid receptor 2 (Homo sapiens)
Sequence (P34972 whole entry): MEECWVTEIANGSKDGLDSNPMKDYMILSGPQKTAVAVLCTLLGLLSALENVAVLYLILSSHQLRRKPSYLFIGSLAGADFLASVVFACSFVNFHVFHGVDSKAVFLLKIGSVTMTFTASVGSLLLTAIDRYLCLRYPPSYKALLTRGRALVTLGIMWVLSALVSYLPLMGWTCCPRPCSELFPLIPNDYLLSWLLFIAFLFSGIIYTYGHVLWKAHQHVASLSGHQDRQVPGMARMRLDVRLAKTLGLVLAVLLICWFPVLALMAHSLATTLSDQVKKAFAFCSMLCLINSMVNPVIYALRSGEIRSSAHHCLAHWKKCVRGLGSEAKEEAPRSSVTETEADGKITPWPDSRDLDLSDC
ASSAY_TEXT: Displacement of [3H]CP-55940 from human recombinant cannabinoid CB2 receptor expressed in CHO cells after 3 hrs by liquid scintillation counting
Field format: number, assumed nM, no unit text.

**Query** Please state recorded Ki (tested on Cannabinoid receptor 2 (Homo sapiens)) of O=C(NC1CCCCC1)N1CCN(C(c2ccccc2)c2cc(Cl)ccc2Cl)CC1 (stereo not given)
**Result** 899

**Query** Would you kindly repeat that for COc1ccc(C(c2ccc(Cl)cc2Cl)N2CCN(C(=O)NC3CCCCC3)CC2)cc1 (stereo not given) ?
**Result** 290

**Query** Would you kindly repeat that for O=C(C1CCCCC1)N1CCN(C(c2ccccc2)c2ccc(Cl)cc2Cl)CC1 (stereo not given) ?
**Result** 2930

**Query** Would you kindly repeat that for O=C(NC1CCCCC1)N1CCN(C(c2ccccc2)c2ccc(Br)cc2F)CC1 (stereo not given) ?
**Result** 322

**Query** Would you kindly repeat that for O=C(NC1CCCCC1)N1CCN(C(c2ccccc2)c2ccc(Cl)c(Cl)c2)CC1 (stereo not given) ?
**Result** 356

**Query** Would you kindly repeat that for O=C(NC1CCCCC1)N1CCN(C(c2ccccc2)c2c(Cl)cccc2Cl)CC1 (stereo not given) ?
**Result** 831

**Query** Would you kindly repeat that for O=C(NC1CCCCC1)N1CCN(C(c2ccccc2)c2ccc(Cl)cc2Cl)CC1 (stereo not given) ?
**Result** 432

**Query** Would you kindly repeat that for O=C(NN1CCCCC1)N1CCN(C(c2ccccc2)c2ccc(Cl)cc2Cl)CC1 (stereo not given) ?
**Result** 1040

**Query** Would you kindly repeat that for O=C(N1CCN(C(c2ccccc2)c2ccc(Cl)cc2Cl)CC1)C12CC3CC(CC(C3)C1)C2 (stereo not given) ?
**Result** 25

**Query** Would you kindly repeat that for CCCCNC(=O)N1CCN(C(c2ccccc2)c2ccccc2)CC1 ?
**Result** 2830

* * *

ASSAY_TEXT: Plasma half life in Sprague-Dawley rat at 10 mg/kg, po
Type: ADME, organism-based
Set-up: dose 10 mg/kg, route oral
RESULT_TYPE: half-life (h)
Field format: number, assumed h, no unit text.

**Query** Which half-life is reported for this compound? Cc1ccc(C(c2ccc(Cl)cc2Cl)N2CCN(C(=O)NC3CCCCC3)CC2)cc1 (stereo unspecified)
**Result** 2.4

* * *

The following compounds have recorded Ki on Cannabinoid receptor 1 (Homo sapiens, UniProt P21554).
Be sure to follow the number with its unit.

**Query** Which Ki is reported for this compound? O=C(NC1CCCCC1)N1CCN(C(c2ccc(Oc3ccccc3)cc2)c2ccc(Cl)cc2Cl)CC1 (stereo not given)
**Result** 1.1 nM

**Query** Would you kindly repeat that for O=C(NN1CCCCC1)N1CCN(C(c2ccccc2)c2ccc(Cl)cc2Cl)CC1 (stereo not given) ?
**Result** 1.2 nM

**Query** Would you kindly repeat that for O=C(C1CCCCC1)N1CCN(C(c2ccccc2)c2ccc(Cl)cc2Cl)CC1 (stereo not given) ?
**Result** 5.8 nM

**Query** Would you kindly repeat that for S=C(NC1CCCCC1)N1CCN(C(c2ccccc2)c2ccccc2)CC1 ?
**Result** 106 nM

**Query** Would you kindly repeat that for O=C(NC1CCCCC1)N1CCN(C(c2ccccc2)c2ccc(F)cc2Cl)CC1 (stereo not given) ?
**Result** 8.1 nM

**Query** Would you kindly repeat that for O=C(N1CCOCC1)N1CCN(C(c2ccccc2)c2ccc(Cl)cc2Cl)CC1 (stereo not given) ?
**Result** 111 nM

**Query** Would you kindly repeat that for O=C(C1CCCCC1)N1CCN(C(c2ccccc2)c2ccccc2)CC1 ?
**Result** 164 nM

**Query** Would you kindly repeat that for COc1ccc(C(c2ccc(Cl)cc2Cl)N2CCN(C(=O)NC3CCCCC3)CC2)cc1 (stereo not given) ?
**Result** 2.6 nM

**Query** Would you kindly repeat that for O=C(NC1CCCCC1)N1CCN(C(c2ccccc2)c2ccccc2)CC1 ?
**Result** 52 nM

**Query** Would you kindly repeat that for O=C(NC1CCCCC1)N1CCN(C(c2ccc(C(F)(F)F)cc2)c2ccc(Cl)cc2Cl)CC1 (stereo not given) ?
**Result** 1.2 nM

* * *

TARGET: Cannabinoid receptor 1 (Homo sapiens)
pIC50: −log10 of the molar value.
RESULT_TYPE: pIC50

**Query** Which pIC50 is reported for this compound? O=C(N1CCOCC1)N1CCN(C(c2ccccc2)c2ccc(Cl)cc2Cl)CC1 (stereo not drawn)
**Result** < 5.00

**Query** Would you kindly repeat that for O=C(C1CCC1)N1CCN(C(c2ccccc2)c2ccc(Cl)cc2Cl)CC1 (stereo not drawn) ?
**Result** < 5.00

**Query** Would you kindly repeat that for O=C(N1CCCCC1)N1CCN(C(c2ccccc2)c2ccc(Cl)cc2Cl)CC1 (stereo not drawn) ?
**Result** < 5.00
